# Test system: NCI-H1651
# PROTOCOL_DESCRIPTION: relative viability (nuclei count vs DMSO), 5 days (fraction); higher = more cells survive
# ASSAY_CONTEXT: first compound 0.1265 µM
ASSAY_READOUT: relative viability
I'd appreciate a reply containing only the number, no unit.

Guide cases for relative viability, answers given:
1. Clc1ccc(Nc2nnc(Cc3ccncc3)c3ccccc23)cc1 [Vatalanib] + CC(C)C[C@H](NC(=O)[C@H](Cc1ccccc1)NC(=O)c1cnccn1)B(O)O [Bortezomib] (partner 0.002 µM) :: 0.917
2. Clc1ccc(Nc2nnc(Cc3ccncc3)c3ccccc23)cc1 [Vatalanib] + Cc1nc(Nc2ncc(C(=O)Nc3c(C)cccc3Cl)s2)cc(N2CCN(CCO)CC2)n1 [Dasatinib] (partner 0.075 µM) :: 0.31

Then this compound:
Please report the recorded relative viability for COc1cc(N2CCC(C(N)=O)CC2)ccc1Nc1nc(N)c(Cl)c(Nc2ccccc2S(=O)(=O)C(C)C)n1 [HG-5-88-01] + NC(=O)Nc1cc(-c2cccc(F)c2)sc1C(=O)N[C@H]1CCCNC1 [AZD7762] (partner 0.2 µM) .
0.447

---

Consider the following compounds and their measured relative viability readings.
# System: NCI-H520
# PROTOCOL_DESCRIPTION: relative viability (nuclei count vs DMSO), 5 days (fraction); higher = more cells survive
# ASSAY_CONTEXT: first compound 0.01 µM
I'd appreciate a reply containing only the number, no unit.

Guide cases for relative viability, answers given:
1. CC(C)Oc1cc(Nc2nc(N[C@@H](C)c3ccc(F)cn3)ncc2Cl)n[nH]1 [AZ23] + Cc1nc(NC(=O)N2CCC[C@H]2C(N)=O)sc1-c1ccnc(C(C)(C)C(F)(F)F)c1 [Alpelisib] (partner 2 µM) :: 1.06
2. CC(C)Oc1cc(Nc2nc(N[C@@H](C)c3ccc(F)cn3)ncc2Cl)n[nH]1 [AZ23] + CS(=O)(=O)N1CCN(Cc2cc3nc(-c4cccc5[nH]ncc45)nc(N4CCOCC4)c3s2)CC1 [Pictilisib] (partner 1 µM) :: 0.327
3. CC(C)Oc1cc(Nc2nc(N[C@@H](C)c3ccc(F)cn3)ncc2Cl)n[nH]1 [AZ23] + Nc1ncn([C@H]2C[C@H](O)[C@@H](CO)O2)c(=O)n1 [Decitabine] (partner 2 µM) :: 0.634

Then this compound:
Hi! What's the reported relative viability for CC(C)Oc1cc(Nc2nc(N[C@@H](C)c3ccc(F)cn3)ncc2Cl)n[nH]1 [AZ23] + Cc1cc(Nc2cc(N3CCN(C)CC3)nc(Sc3ccc(NC(=O)C4CC4)cc3)n2)n[nH]1 [Tozasertib] (partner 0.1 µM) on NCI-H520?
0.455

---

# System: LU99A
# PROTOCOL_DESCRIPTION: relative viability (nuclei count vs DMSO), 5 days (fraction); higher = more cells survive
# ASSAY_CONTEXT: first compound 0.01 µM
Classify: Fulfilled when relative viability is strictly less than 0.6; Not fulfilled when relative viability is not.

Below 0.6 on relative viability? Entry CC(C)Oc1cc(Nc2nc(N[C@@H](C)c3ccc(F)cn3)ncc2Cl)n[nH]1 [AZ23] + CC(C)C[C@H](NC(=O)[C@H](Cc1ccccc1)NC(=O)c1cnccn1)B(O)O [Bortezomib] (partner 0.002 µM)
Not fulfilled

Try CC(C)Oc1cc(Nc2nc(N[C@@H](C)c3ccc(F)cn3)ncc2Cl)n[nH]1 [AZ23] + CC(=O)Nc1cccc(-n2c(=O)n(C3CC3)c(=O)c3c(Nc4ccc(I)cc4F)n(C)c(=O)c(C)c32)c1 [Trametinib] (partner 0.02 µM) next.
Fulfilled

---

# Test system: H3255
# PROTOCOL_DESCRIPTION: relative viability (nuclei count vs DMSO), 5 days (fraction); higher = more cells survive
# ASSAY_CONTEXT: first compound 0.01 µM
ASSAY_READOUT: relative viability

1. CC(C)Oc1cc(Nc2nc(N[C@@H](C)c3ccc(F)cn3)ncc2Cl)n[nH]1 [AZ23] + Cc1nc(NC(=O)N2CCC[C@H]2C(N)=O)sc1-c1ccnc(C(C)(C)C(F)(F)F)c1 [Alpelisib] (partner 2 µM) :: 0.637

Then this compound:
Hi! What's the reported relative viability for CC(C)Oc1cc(Nc2nc(N[C@@H](C)c3ccc(F)cn3)ncc2Cl)n[nH]1 [AZ23] + C[C@]1(O)C[C@@H](c2nc(-c3ccc4ccc(-c5ccccc5)nc4c3)c3c(N)nccn32)C1 [Linsitinib] (partner 1 µM) on H3255?
1.03

---

# Tested on: PC-3 [JPC-3]
# PROTOCOL_DESCRIPTION: relative viability (nuclei count vs DMSO), 5 days (fraction); higher = more cells survive
# ASSAY_CONTEXT: first compound 4 µM
ASSAY_READOUT: relative viability
I'd appreciate a reply containing only the number, no unit.

Guide cases for relative viability, answers given:
1) COc1cc(N2CCC(C(N)=O)CC2)ccc1Nc1nc(N)c(Cl)c(Nc2ccccc2S(=O)(=O)C(C)C)n1 [HG-5-88-01] + Cc1cc(Nc2cc(N3CCN(C)CC3)nc(Sc3ccc(NC(=O)C4CC4)cc3)n2)n[nH]1 [Tozasertib] (partner 0.1 µM) :: 0.702
2) COc1cc(N2CCC(C(N)=O)CC2)ccc1Nc1nc(N)c(Cl)c(Nc2ccccc2S(=O)(=O)C(C)C)n1 [HG-5-88-01] + CC(C)C[C@H](NC(=O)[C@H](Cc1ccccc1)NC(=O)c1cnccn1)B(O)O [Bortezomib] (partner 0.002 µM) :: 0.533
3) COc1cc(N2CCC(C(N)=O)CC2)ccc1Nc1nc(N)c(Cl)c(Nc2ccccc2S(=O)(=O)C(C)C)n1 [HG-5-88-01] + CC(=O)c1c(C)c2cnc(Nc3ccc(N4CCNCC4)cn3)nc2n(C2CCCC2)c1=O [Palbociclib] (partner 0.5 µM) :: 0.422

Then this compound:
Please report the recorded relative viability for Clc1ccc(Nc2nnc(Cc3ccncc3)c3ccccc23)cc1 [Vatalanib] + CS(=O)(=O)CCNCc1ccc(-c2ccc3ncnc(Nc4ccc(OCc5cccc(F)c5)c(Cl)c4)c3c2)o1 [Lapatinib] (partner 2 µM) .
0.442

---

Consider the following molecules and their measured relative viability readings.
# Tested on: NCI-H2170
# PROTOCOL_DESCRIPTION: relative viability (nuclei count vs DMSO), 5 days (fraction); higher = more cells survive
# ASSAY_CONTEXT: first compound 4 µM
I'd appreciate a reply containing only the number, no unit.

Guide cases for relative viability, answers given:
1) Clc1ccc(Nc2nnc(Cc3ccncc3)c3ccccc23)cc1 [Vatalanib] + CC(=O)c1c(C)c2cnc(Nc3ccc(N4CCNCC4)cn3)nc2n(C2CCCC2)c1=O [Palbociclib] (partner 0.5 µM) :: 0.384
2) COc1cc(N2CCC(C(N)=O)CC2)ccc1Nc1nc(N)c(Cl)c(Nc2ccccc2S(=O)(=O)C(C)C)n1 [HG-5-88-01] + Nc1ncn([C@H]2C[C@H](O)[C@@H](CO)O2)c(=O)n1 [Decitabine] (partner 2 µM) :: 0.486
3) C[C@@H]1CN(CC(=O)Nc2ccc3c(c2)Cc2cccc(-c4cc(=O)cc(N5CCOCC5)o4)c2S3)C[C@H](C)O1 + Cc1nc(NC(=O)N2CCC[C@H]2C(N)=O)sc1-c1ccnc(C(C)(C)C(F)(F)F)c1 [Alpelisib] (partner 2 µM) :: 0.751

Please report the recorded relative viability for Clc1ccc(Nc2nnc(Cc3ccncc3)c3ccccc23)cc1 [Vatalanib] + CS(=O)(=O)CCNCc1ccc(-c2ccc3ncnc(Nc4ccc(OCc5cccc(F)c5)c(Cl)c4)c3c2)o1 [Lapatinib] (partner 2 µM) .
0.264

---

Consider the following compounds and their measured relative viability readings.
# System: PC-3 [JPC-3]
# PROTOCOL_DESCRIPTION: relative viability (nuclei count vs DMSO), 5 days (fraction); higher = more cells survive
# ASSAY_CONTEXT: first compound 0.04 µM
I'd appreciate a reply containing only the number, no unit.

1) COc1cc(N2CCC(C(N)=O)CC2)ccc1Nc1nc(N)c(Cl)c(Nc2ccccc2S(=O)(=O)C(C)C)n1 [HG-5-88-01] + O=C(CCCCCCC(=O)Nc1ccccc1)NO [Vorinostat] (partner 1 µM) :: 0.879

Then this compound:
Please report the recorded relative viability for C[C@@H]1CN(CC(=O)Nc2ccc3c(c2)Cc2cccc(-c4cc(=O)cc(N5CCOCC5)o4)c2S3)C[C@H](C)O1 + C[C@]1(O)C[C@@H](c2nc(-c3ccc4ccc(-c5ccccc5)nc4c3)c3c(N)nccn32)C1 [Linsitinib] (partner 1 µM) .
1.06

---

# Tested on: HCC-827
# PROTOCOL_DESCRIPTION: relative viability (nuclei count vs DMSO), 5 days (fraction); higher = more cells survive
# ASSAY_CONTEXT: first compound 0.01 µM
Consider the following molecules and their measured relative viability readings.
I'd appreciate a reply containing only the number, no unit.

Guide cases for relative viability, answers given:
1) CC(C)Oc1cc(Nc2nc(N[C@@H](C)c3ccc(F)cn3)ncc2Cl)n[nH]1 [AZ23] + CC(=O)c1c(C)c2cnc(Nc3ccc(N4CCNCC4)cn3)nc2n(C2CCCC2)c1=O [Palbociclib] (partner 0.5 µM) :: 0.47
2) CC(C)Oc1cc(Nc2nc(N[C@@H](C)c3ccc(F)cn3)ncc2Cl)n[nH]1 [AZ23] + O=C(CCCCCCC(=O)Nc1ccccc1)NO [Vorinostat] (partner 1 µM) :: 0.964

Please report the recorded relative viability for CC(C)Oc1cc(Nc2nc(N[C@@H](C)c3ccc(F)cn3)ncc2Cl)n[nH]1 [AZ23] + NC(=O)Nc1cc(-c2cccc(F)c2)sc1C(=O)N[C@H]1CCCNC1 [AZD7762] (partner 0.2 µM) .
0.147
